- tested_system: T1, biotinylated PD1-ECD-AviHis (human, UniProt Q15116 25-170, biotinylated)
- T1 construct: also called huPD1; hu PD1; not shown: Avi-His tag
- T1 sequence (Q15116 25-170): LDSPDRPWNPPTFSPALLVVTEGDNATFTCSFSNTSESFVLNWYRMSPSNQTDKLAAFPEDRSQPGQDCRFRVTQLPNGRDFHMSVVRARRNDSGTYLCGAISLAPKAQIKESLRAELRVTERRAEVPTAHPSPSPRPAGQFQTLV
- method_description: ELISA on coated biotinylated PD1-ECD-AviHis
- Description: After washing (3×90 μl/well with PBST-buffer) 25 μl/well goat-anti-human H+L-POD (JIR, JIR109-036-088)/Sheep-anti-mouse-POD (GE Healthcare; NA9310) was added in 1:2000/1:1000 dilution and incubated at RT for 1 h on shaker. After washing (3×90 μl/well with PBST-buffer) 25 μl/well TMB substrate (Roche Catalogue No. 11835033001) was added and incubated until OD 2-3. Measurement took place at 370/492 nm.
Recorded measurements of EC50, one per entry
// units = µg/mL; emit number, no label

Solved entries (count: 2):
1. PD1-0073 (antibody, V domains shown) VH: EVKLVESGGGLVKPGGSLKLSCAASGFTFSNYGMSWIRQTPEKGLEWVATISGGGRDTYYPDSVKGRFTISRDNVKNNLYLQMSSLRSEDTAFYYCASYYYGIDYWGQGTSVTVSS VL: DIVMTQPHKFMSTSVGDRVRITCKASQDVTTAVAWYQQKPGQSPKLLIYWASTRHTGVPDRFTGSGSGTEFTLTISSVQAEDLALYYCQQHYSIPWTFGGGTKLEIK :: 0.0151
2. PD1-0098 (antibody, V domains shown, Mouse hybridoma antibody) VH: DVQLQESGPGLVKPSQSLSLTCTVTGYSITSDYAWNWIRQFPGDKLEWLGYITYSGFTNYNPSLKSRISISRDTSKNQFFLQLNSVATEDTATYYCARWHGSAPWYFDYWGRGTTLTVSS VL: DVLMTQTPLSLPVSLGDQASISCRSSQNIVHSDGNTYLEWYLQKPGQSPNLLIYKVSRRFSGVPDRFSGSGSGTDFTLKISRVEAEDLGVYYCFQGSHFPLTFGAGTKLELK :: 0.0508

Now consider a different binder.
**Query** Please look up its EC50: PD1-0102 (antibody, V domains shown) VH: DVQLQESGPDLVKPSQSLSLTCTVTGYSITSGYSWHWIRQFPGNKLEWMGFIHSSGDTNYNPSLKSRISFTRDTSKNQFFLQLSSLTDEDTATYYCATYRNWYFDVWGAGTTVTVSS VL: DIVMTQSPSSLTVTAGEKVTMRCKSSQSLLNSGTQKNYLTWYQQKPGQPPKLLIYWASTRESGVPNRFTGSGSGTDFTLTISSVQAEDLSVYYCQSDYTFPLTFGGGTKLELK
**Result** 0.0342
